Measurement Protocol: Particle size and polydispersity index of nanoparticle compositions (Zetasizer Nano ZS)
Type: physicochemical
Stated Conditions: Table 1c; nanoparticle compositions
Measured Quantity: PDI

| Molecule | PDI |
| --- | --- |
| CCCCCCCCCN(CCCCCCCCC)CCN(CCCCCCCCC)CC(=O)N1CCN(C(=O)CN(CCCCCCCCC)CCCC(=O)SCCCCC)CC1 [Compound 134] | 0.21 |
| CCCCCCCCCCCCN(CCCOC(=O)CCCCCCC)CC(=O)N1CCN(C(=O)CN(CCCCCCCCC)CCN(CCCCCCCCC)CCCCCCCCC)CC1 [Compound 135] | 0.22 |
| CCCCCCCCCN(CCCCCCCCC)CCN(CCCCCCCCC)CC(=O)N1CCC(CCN(CCCCCCCCC)CC(C)COC(=O)CCCCC)CC1 (stereo not drawn) [Compound 132] | 0.23 |
| CCCCCCCCCCCCCCN(CCCOC(=O)CCCCCCCCC)CCC1CCN(C(=O)CN(CCCCCCCCC)CCN(CCCCCCCCC)CCCCCCCCC)CC1 [Compound 92] | 0.17 |
| CCCCCC/C=C\CC(=O)OCCCN(CCCCCCCCCCCCCC)CC(=O)N1CCN(C(=O)CN(CCCCCCCCC)CCN(CCCCCCCCC)CCCCCCCCC)CC1 [Compound 137] | 0.22 |
| CCCCCCCCCCCCCCN(CCCCCCCC(=O)OCCCCC)CCC1CCCN(C(=O)CN(CCCCCCCCC)CCN(CCCCCCCCC)CCCCCCCCC)C1 (stereo not drawn) [Compound 120] | 0.21 |

====

Measurement Protocol: Encapsulation efficiency of RNA (QUANT-IT RIBOGREEN RNA assay)
Assay type: physicochemical
Stated Conditions: Table 1c; nanoparticle compositions
Measured Quantity: EE (%)

| Compound | Measured Quantity | Quantity Unit | Quantitative Result |
| --- | --- | --- | --- |
| CCCCCC/C=C\COC(=O)CCCN(CCCCCCCCCCCCCC)CC(=O)N1CCN(C(=O)CN(CCCCCCCCC)CCN(CCCCCCCCC)CCCCCCCCC)CC1 [Compound 118] | EE (%) | % | 97.8 |
| CCCCCCCCCN(CCCCCCCCC)CCN(CCCCCCCCC)CC(=O)N1CCN(C(=O)CN(CCCCCCCCC)CCCC(=O)SCCCCC)CC1 [Compound 134] | EE (%) | % | 96.7 |
| CCCCCCCCCCCCCCN(CCCCCCCCCCCC(=O)OC)CCC1CCN(C(=O)CN(CCCCCCCCC)CCN(CCCCCCCCC)CCCCCCCCC)C1 (stereo not drawn) [Compound 127] | EE (%) | % | 99.5 |

====

Measurement Protocol: pKa of nanoparticle compositions
Format: physicochemical
Stated Conditions: Table 1c
Measured Quantity: pKa

| Record Smiles | Measured Quantity | Quantitative Result |
| --- | --- | --- |
| CCCCCC/C=C\COC(=O)CCCN(CCCCCCCCCCCCCC)CC(=O)N1CCN(C(=O)CN(CCCCCCCCC)CCN(CCCCCCCCC)CCCCCCCCC)CC1 | pKa | 6.7 |
| CCCCCCCCCCCCCCN(CCCCCC(=O)OCCCCCCC)CCC1CCN(C(=O)CN(CCCCCCCCC)CCN(CCCCCCCCC)CCCCCCCCC)CC1 | pKa | 6.65 |
| CCCCCCCCCN(CCCCCCCCC)CC(=O)N1CCN(C(=O)CN(CCCCCCCCC)CCCCCCCCC)CC1 | pKa | 6.14 |
| CCCCCCCCCN(CCCCCCCCC)CCN(CCCCCCCCC)CCOC(=O)C1CCN(C(=O)CN(CCCCCCCCC)CCCCCCCCC)CC1 | pKa | 5.17 |

A. CCCCCCCCCN(CCCCCCCCC)CCN(CCCCCCCCC)CC(=O)N(C)CCN(C)C(=O)CN(CCCCCCCCC)CCCC(=O)OCCCCC
B. CCCCCCCCCN(CCCCCCCCC)CCN(CCCCCCCCC)CC(=O)OCCOC(=O)CN(CCCCCCCCC)CCCCCCCCC
Data request: Returns: the label, A or B , whose recorded pKa is the lower number. // caller expects the label of the chosen entry
Data returned: B
(B: 5.10, A: 7.48)

====

Measurement Protocol: Particle size and polydispersity index of nanoparticle compositions (Zetasizer Nano ZS)
Format: physicochemical
Stated Conditions: Table 1d, Formulated with lipid:Chol:DOPE:PEG 1 40:38.5:20:1.5
Measured Quantity: PDI

| Molecule | Quantitative Result |
| --- | --- |
| CCCCCCCCCN(CCCCCCCCC)CCN(CCCCCCCCC)CC(=O)N(C)CCCCN(C)C(=O)CN(CCCCCCCCC)CCCCCCCCC [Compound 159] | 0.12 |
| CCCC/C=C\CCCCCCCCN(CCCOC(=O)CCCCCCCCC)CC(=O)N1CCN(C(=O)CN(CCCCCCCCC)CCN(CCCCCCCCC)CCCCCCCCC)CC1 [Compound 140] | 0.14 |
| CCCCCCCCCN(CCCCCCCCC)CCN(CCCCCCCCC)CC(=O)N(CC)CCN(CC)C(=O)CN(CCCCCCCCC)CCCCCCCCC [Compound 157] | 0.11 |

====

Measurement Protocol: Encapsulation efficiency of RNA (QUANT-IT RIBOGREEN RNA assay)
Assay type: physicochemical
Stated Conditions: Table 1c; nanoparticle compositions
Measured Quantity: EE (%)

| Compound | Quantity Unit | Quantitative Result |
| --- | --- | --- |
| CCCCCCCCCN(CCCCCCCCC)CCN(CCCCCCCCC)CC(=O)N1CCC(COC(=O)CN(CCCCCCCCC)CCCCCCCCC)C1 (stereo not shown) | % | 97.6 |
| CCCCCCCCCN(CCCCCCCCC)CC(=O)N1CCN(C(=O)CN(CCCCCCCCC)CCCCCCCCC)CC1 | % | 97.1 |
| CCCCCCCCCCCC(=O)N1CCN(C(=O)CN(CCCCCCCCC)CCN(CCCCCCCCC)CCCCCCCCC)CC1 | % | 97.4 |
| CCCCCCCCCN(CCCCCCCCC)CCN(CCCCCCCCC)CC(=O)N1CCN(C(=O)CCCC(=O)OCCCCCCC)CC1 | % | 97.2 |
| CCCCCCCCCCCCCCN(CCCOC(=O)CCCCCCCCC)CCC1CCN(C(=O)CN(CCCCCCCCC)CCN(CCCCCCCCC)CCCCCCCCC)C1 (stereo not shown) | % | 98.7 |
| CCCCCCCCCN(CCCCCCCCC)CCN(CCCCCCCCC)CC(=O)N1CCC(CCOC(=O)CN(CCCCCCCCC)CCCCCCCCC)C1 (stereo not shown) | % | 99.0 |
| CCCCCCCCCCCCCCN(CCCOC(=O)CCCCCCCCC)CCC1CCCN(C(=O)CN(CCCCCCCCC)CCN(CCCCCCCCC)CCCCCCCCC)C1 (stereo not shown) | % | 99.1 |
| CCCCCCCCCCCCN(CCCOC(=O)CCCCCCC)CC(=O)N1CCN(C(=O)CN(CCCCCCCCC)CCN(CCCCCCCCC)CCCCCCCCC)CC1 | % | 98.6 |
| CCCCCCCCCCCCCCN(CCCOC(=O)CCCCCCCCC)CC(=O)N1CCN(C(=O)CN(CCCCCCCCC)CCN(CCCCCCCCC)CCCCCCCCC)CC1 | % | 97.6 |
| CCCCCCCCCN(CCCCCCCCC)CCN(CCCCCCCCC)CC(=O)N1CCC(CCOC(=O)CN(CCCCCCCCC)CCCCCCCCC)CC1 | % | 98.1 |
| CCCCCCCCCN(CCCCCCCCC)CCN(CCCCCCCCC)CC(=O)N(C)CCN(C)C(=O)CN(CCCCCCCCC)CCCC(=O)OCCCCC | % | 98.5 |
| CCCCCCCCCN(CCCCCCCCC)CCN(CCCCCCCCC)CC(=O)N1CCN(C(=O)CN(CCCCCCCCC)CCCOC(=O)CC(C)CCC)CC1 (stereo not shown) | % | 98.5 |
| CCCCCCCCCN(CCCCCCCCC)CCN(CCCCCCCCC)CC(=O)N1CCN(C(=O)C(C)N(CCCCCCCCC)CCCC(=O)OCCCCC)CC1 (stereo not shown) | % | 96.7 |
| CCCCCC/C=C\CC(=O)OCCCN(CCCCCCCCCCCCCC)CC(=O)N1CCN(C(=O)CN(CCCCCCCCC)CCN(CCCCCCCCC)CCCCCCCCC)CC1 | % | 98.8 |
| CCCCC/C=C\CCN(CC/C=C\CCCCC)CCN(CC/C=C\CCCCC)CC(=O)N1CCN(C(=O)CN(CCCCCCCCC)CCCCCCCC(=O)OC)CC1 | % | 94.8 |
| CCCCCCCCCCCCCCN(CCCCCCCC(=O)OCCCCC)CCC1CCN(C(=O)CN(CCCCCCCCC)CCN(CCCCCCCCC)CCCCCCCCC)C1 (stereo not shown) | % | 99.2 |
| CCCCCCCCCCCCCCN(CCCCCCCCCCCC(=O)OC)CC(=O)N1CCN(C(=O)CN(CCCCCCCCC)CCN(CCCCCCCCC)CCCCCCCCC)CC1 | % | 95.2 |
| CCCCCCCCCCCCCCN(CCCCCC(=O)OCCCCCCC)CCC1CCCN(C(=O)CN(CCCCCCCCC)CCN(CCCCCCCCC)CCCCCCCCC)C1 (stereo not shown) | % | 98.6 |
| CCCCCCCCCN(CCCCCCCCC)CCN(CCCCCCCCC)CCOC(=O)C1CCN(C(=O)CN(CCCCCCCCC)CCCCCCCCC)CC1 | % | 96.9 |
| CCCCCCCCCCCCCCN(CCCCCCCC(=O)OCCCCC)CCC1CCCN(C(=O)CN(CCCCCCCCC)CCN(CCCCCCCCC)CCCCCCCCC)C1 (stereo not shown) | % | 99.0 |
| CCCCCCCCCN(CCCCCCCCC)CCN(CCCCCCCCC)CC(=O)N1CCN(C(=O)CN(CCCCCCCCC)CC(C)COC(=O)CCCCC)CC1 (stereo not shown) | % | 98.0 |
| CCCCCCCCCN(CCCCCCCCC)CCOC(=O)C1CCC(C(=O)OCCN(CCCCCCCCC)CCN(CCCCCCCCC)CCCCCCCCC)CC1 (stereo not shown) | % | 97.1 |
| CCCCCCCCCCCCCCN(CCCCCCCC(=O)OCCCCC)CC(=O)N1CCN(C(=O)CN(CCCCCCCCC)CCN(CCCCCCCCC)CCCCCCCCC)CC1 | % | 98.4 |
| CCCCCCCCCCCCCCN(CCCCCCCCCCCC(=O)OC)CCC1CCN(C(=O)CN(CCCCCCCCC)CCN(CCCCCCCCC)CCCCCCCCC)CC1 | % | 98.9 |
| CCCCCCCCCN(CCCCCCCCC)CCN(CCCCCCCCC)CC(=O)N1CCN(C(=O)CN(CCCCCCCCC)CCCCCOC(=O)OC)CC1 | % | 95.0 |
